- assay method text: Relaxivity measurements at 1.41 T in water
- Assay type: physicochemical
- test settings: 37° C., normalized to Gd
r1 water listing for selected compounds.
Kindly provide the numeric value in L/mmol/s only, without the unit symbol.

Consider the worked cases shown below.
{"columns": ["compound", "value units", "r1 water"],
 "data": [
  ["CCOCCOCCOCCOc1ccc(C[C@H](C(=O)O)N2CCN(CC(=O)[O-])CCN(CC(=O)[O-])CCN(CC(=O)[O-])CC2)cc1.[Gd+3]", "L/mmol/s", 4.3],
  ["CCOCCOCCOc1ccc(CCCC(C(=O)O)N2CCN(C(CO)C(=O)[O-])CCN(C(CO)C(=O)[O-])CCN(C(CO)C(=O)[O-])CC2)cc1.[Gd+3] (stereo not drawn)", "L/mmol/s", 5.3]
]}

Please find the next compound below.
Asked: Give r1 water for the following compound: CCCC(C(=O)[O-])N1CCN(CC(=O)[O-])CCN(C(Cc2ccc(OCC)cc2)C(=O)O)CCN(CC(=O)[O-])CC1.[Gd+3] (stereo not drawn) [Example 29]
Given back: 4.4

---

- assay method text: Partition coefficient (log P butanol/buffer)
- Assay type: physicochemical
- test settings: 1-butanol / 50 mM Tris-HCl, pH 7.4, room temperature
Recorded Log P (partition coefficient butanol/buffer) by entry

{"columns": ["compound", "value reported"],
 "data": [
  ["CCOCCOCCOc1ccc(C[C@@H](C(=O)O)N2CCN(CC(=O)[O-])CCN(CC(=O)[O-])CCN(CC(=O)[O-])CC2)cc1.[Gd+3]", "−1.61"],
  ["CCCC(C(=O)[O-])N1CCN(CC(=O)[O-])CCN(C(Cc2ccc(OCC)cc2)C(=O)O)CCN(CC(=O)[O-])CC1.[Gd+3] (stereo not drawn) [Example 29]", "−0.53"],
  ["CCOc1ccc(CC(CN(CCN(CC(=O)[O-])CC(=O)[O-])CC(=O)[O-])N(CC(=O)[O-])CC(=O)[O-])cc1.[Gd+3].[Na+].[Na+] (stereo not drawn) [RC1, gadoxetate disodium, reference compound]", "−2.12"]
]}

Asked: Let me know recorded Log P (partition coefficient butanol/buffer) for CCOCCOCCOc1ccc(C[C@H](C(=O)O)N2CCN(CC(=O)[O-])CCN(CC(=O)[O-])CCN(CC(=O)[O-])CC2)cc1.[Gd+3] , thanks.
Given back: −1.61

Asked: State its Log P (partition coefficient butanol/buffer) for this compound: CCCCOc1ccc(CCC[C@@H](C(=O)O)N2CCN(CC(=O)[O-])CCN(CC(=O)[O-])CCN(CC(=O)[O-])CC2)cc1.[Gd+3]
Given back: 0.20

Asked: Consider the compound CCOCCOCCOc1ccc(CCC[C@@H](C(=O)O)N2CCN(CC(=O)[O-])CCN(CC(=O)[O-])CCN(CC(=O)[O-])CC2)cc1.[Gd+3] . State its measured Log P (partition coefficient butanol/buffer).
Given back: −1.01

---

Measured Uptake rat hepatocytes, listed per entry for reference.
- Test system: freshly isolated rat hepatocytes
- assay method text: Uptake into freshly isolated rat hepatocytes
- test settings: 100 μmol Gd/L, 10 min, 37° C., relative to RC1 (Gd-EOB-DTPA)

These recorded examples may help you get a feel for the data.
{"columns": ["compound", "Uptake rat hepatocytes"],
 "data": [
  ["CCOCCOCCOc1ccc(CC(C(=O)O)N2CCN(CC(=O)[O-])CCN(CC(=O)[O-])CCN(CC(=O)[O-])CC2)nc1.[Gd+3] (centres unmarked)", "17 % of RC1"],
  ["CCCC(C(=O)[O-])N1CCN(CC(=O)[O-])CCN(C(Cc2ccc(OCC)cc2)C(=O)O)CCN(CC(=O)[O-])CC1.[Gd+3] (centres unmarked) [Example 30]", "75 % of RC1"],
  ["CCOCCOCCOc1ccc(CC(C(=O)O)N2CCN(CC(=O)[O-])CCN(C(CO)C(=O)[O-])CCN(CC(=O)[O-])CC2)cc1.[Gd+3] (centres unmarked)", "52 % of RC1"],
  ["CCOCCOCCOc1ccc(C[C@H](C(=O)O)N2CCN(CC(=O)[O-])CCN(CC(=O)[O-])CCN(CC(=O)[O-])CC2)cc1.[Gd+3]", "72 % of RC1"],
  ["CCOCCOCCOc1ccc(CCC[C@@H](C(=O)O)N2CCN([C@@H](CO)C(=O)[O-])CCN([C@@H](CO)C(=O)[O-])CCN([C@@H](CO)C(=O)[O-])CC2)cc1.[Gd+3]", "109 % of RC1"],
  ["CCOCCOCCOCCOc1ccc(C[C@H](C(=O)O)N2CCN(CC(=O)[O-])CCN(CC(=O)[O-])CCN(CC(=O)[O-])CC2)cc1.[Gd+3]", "53 % of RC1"]
]}

Asked: Input COCC(C(=O)O)N1CCN(CC(=O)[O-])CCN(C(Cc2ccc(OCC(F)(F)C(F)F)cc2)C(=O)[O-])CCN(CC(=O)[O-])CC1.[Gd+3] (centres unmarked) , output reported Uptake rat hepatocytes.
Given back: 68 % of RC1

Asked: Return Uptake rat hepatocytes for the following compound: CCOCCOCCOCCOc1ccc(CC(C(=O)O)N2CCN(CC(=O)[O-])CCN(CC(=O)[O-])CCN(CC(=O)[O-])CC2)cc1.[Gd+3] (centres unmarked)
Given back: 49 % of RC1

Asked: Item CCOCCOCCOCCOc1ccc(C[C@@H](C(=O)O)N2CCN(CC(=O)[O-])CCN(CC(=O)[O-])CCN(CC(=O)[O-])CC2)cc1.[Gd+3] : provide Uptake rat hepatocytes
Given back: 39 % of RC1

Asked: Find the measured Uptake rat hepatocytes of CCOCCOCCOc1ccc(CCCC(C(=O)O)N2CCN(CC(=O)[O-])CCN(CC(=O)[O-])CCN(CC(=O)[O-])CC2)cc1.[Gd+3] (centres unmarked) and report it.
Given back: 82 % of RC1

Asked: Tell me Uptake rat hepatocytes reported for CCOCCOCCOc1ccc(CC(C(=O)O)N2CCN(CC(=O)[O-])CCN(CC(=O)[O-])CCN(CC(=O)[O-])CC2)cn1.[Gd+3] (centres unmarked)
Given back: 16 % of RC1

Asked: Give reported Uptake rat hepatocytes value for CCOCCOc1ccc(CC(C(=O)O)N2CCN(CC(=O)[O-])CCN(C(CC)C(=O)[O-])CCN(CC(=O)[O-])CC2)cc1.[Gd+3] (single isomer, unassigned) [Example 7]
Given back: 89 % of RC1

Asked: # return recorded Uptake rat hepatocytes for input CCOCCOCCOc1cc(CC(C(=O)O)N2CCN(CC(=O)[O-])CCN(CC(=O)[O-])CCN(CC(=O)[O-])CC2)cc(OCCOCCOCC)c1.[Gd+3] (centres unmarked)
Given back: 17 % of RC1

Asked: Identify the reported Uptake rat hepatocytes for the following entry. CCOCCOCCOCCOc1ccc(C[C@@H](C(=O)O)N2CCN(CC(=O)[O-])CCN(CC(=O)[O-])CCN(CC(=O)[O-])CC2)c(OCCOCCOCCOCC)c1.[Gd+3]
Given back: 20 % of RC1

Asked: Item CCOCCOCCOc1ccc(CCC[C@@H](C(=O)O)N2CCN(C(CO)C(=O)[O-])CCN(C(CO)C(=O)[O-])CCN(C(CO)C(=O)[O-])CC2)cc1.[Gd+3] (mixture of isomers) : provide Uptake rat hepatocytes
Given back: 81 % of RC1

Asked: Return value of Uptake rat hepatocytes for input CCOc1ccc(CCCC(C(=O)O)N2CCN(CC(=O)[O-])CCN(CC(=O)[O-])CCN(CC(=O)[O-])CC2)cc1.[Gd+3] (centres unmarked) , no commentary.
Given back: 72 % of RC1

Asked: Give the reported value of Uptake rat hepatocytes for this record: O=C([O-])CN(CCN(CC(=O)[O-])CC(=O)[O-])CCN(CC(=O)[O-])C(COCc1ccccc1)C(=O)[O-].[Gd+3].[H+].[H+] (centres unmarked) [RC2, gadobenic acid, reference compound]
Given back: 9 % of RC1

Asked: For the compound CCOCCOCCOc1ccc(CC(C(=O)O)N2CCN(CC(=O)[O-])CCN(C(C)C(=O)[O-])CCN(CC(=O)[O-])CC2)cc1.[Gd+3] (single isomer, unassigned) [Example 6] , give its measured Uptake rat hepatocytes value.
Given back: 62 % of RC1

Asked: Give Uptake rat hepatocytes for CCOCCOc1ccc(CC(C(=O)O)N2CCN(CC(=O)[O-])CCN(CC(=O)[O-])CCN(CC(=O)[O-])CC2)cc1.[Gd+3] (centres unmarked)
Given back: 54 % of RC1

Asked: Hello, please tell me recorded Uptake rat hepatocytes for this one: CCOCCOCCOc1ccc(CC(C(=O)O)N2CCN(CC(=O)[O-])CCN(CC(=O)[O-])CCN(CC(=O)[O-])CC2)cc1.[Gd+3] (centres unmarked)
Given back: 52 % of RC1

Asked: Give reported Uptake rat hepatocytes value for CCCCOc1ccc(CCC[C@@H](C(=O)O)N2CCN(CC(=O)[O-])CCN(CC(=O)[O-])CCN(CC(=O)[O-])CC2)cc1.[Gd+3]
Given back: 87 % of RC1

Asked: Hello, please tell me recorded Uptake rat hepatocytes for this one: CCOc1ccc(CCOCC(C(=O)O)N2CCN(CC(=O)[O-])CCN(CC(=O)[O-])CCN(CC(=O)[O-])CC2)cc1.[Gd+3] (centres unmarked)
Given back: 29 % of RC1

Asked: Tell us which Uptake rat hepatocytes value is on record for CCOCCOCCOc1ccc(CC(C(=O)[O-])N2CCN(CC(=O)[O-])CCN(C(CC)C(=O)O)CCN(CC(=O)[O-])CC2)cc1.[Gd+3] (centres unmarked)
Given back: 90 % of RC1

Hello, the source for this data is patent US20260083864A1, in case you need it.
